# Tested on: L1210
# experiment.summary: Concentration required to reduce the growth rate of L-1210 cells to half of the control rate
# Format: functional
# measurement.conditions: Mus musculus, read-out: ID50 (the source's name)
measure.name: IC50 (µM)
Give the value in µM but do not write µM after it.

Reported IC50 for Nc1ncnc2c1c1c(=S)[nH]c(=O)[nH]c1n2C1O[C@H](CO)[C@@H](O)[C@H]1O (some centres undefined) : what is it?
11

Reported IC50 for Nc1ncnc2c1c1c(S)ncnc1n2C1O[C@H](CO)[C@@H](O)[C@H]1O (some centres undefined) : what is it?
2

Reported IC50 for N#Cc1c(Br)n(C2O[C@H](CO)[C@@H](O)[C@H]2O)c2ncnc(N)c12 (some centres undefined) : what is it?
0.21

Reported IC50 for CSc1ncnc2c1c1c(N)ncnc1n2C1O[C@H](CO)[C@@H](O)[C@H]1O (some centres undefined) : what is it?
8.6

Reported IC50 for Nc1nc2c(c(=O)[nH]1)c1c(N)ncnc1n2[C@@H]1O[C@H](CO)[C@@H](O)[C@H]1O : what is it?
2.5

Reported IC50 for Nc1ncnc2c1c1c(O)ncnc1n2C1O[C@H](CO)[C@@H](O)[C@H]1O (some centres undefined) : what is it?
63

Reported IC50 for Nc1ncnc2c1c1c(SCc3ccc([N+](=O)[O-])cc3)ncnc1n2C1O[C@H](CO)[C@@H](O)[C@H]1O (some centres undefined) : what is it?
45

Reported IC50 for Nc1ncnc2c1c1c(S)nc(S)nc1n2C1O[C@H](CO)[C@@H](O)[C@H]1O (some centres undefined) : what is it?
6.1

Reported IC50 for Nc1ncnc2c1c1cnc(O)nc1n2C1O[C@H](CO)[C@@H](O)[C@H]1O (some centres undefined) : what is it?
75

Reported IC50 for N#Cc1c(N)n(C2O[C@H](CO)[C@@H](O)[C@H]2O)c2ncnc(N)c12 (some centres undefined) : what is it?
0.18

Reported IC50 for CSc1nc(SC)c2c3c(N)ncnc3n(C3O[C@H](CO)[C@@H](O)[C@H]3O)c2n1 (some centres undefined) : what is it?
78

Reported IC50 for Nc1ncnc2c1c1c(N)nc(O)nc1n2C1O[C@H](CO)[C@@H](O)[C@H]1O (some centres undefined) : what is it?
120

Reported IC50 for C=CCSc1ncnc2c1c1c(N)ncnc1n2C1O[C@H](CO)[C@@H](O)[C@H]1O (some centres undefined) : what is it?
110

Reported IC50 for NC(=S)c1c(N)n(C2O[C@H](CO)[C@@H](O)[C@H]2O)c2ncnc(N)c12 (some centres undefined) : what is it?
0.22

Reported IC50 for Nc1ncnc2c1c1c(O)nc(S)nc1n2C1O[C@H](CO)[C@@H](O)[C@H]1O (some centres undefined) : what is it?
7

Reported IC50 for NC(=O)c1c(N)n(C2O[C@H](CO)[C@@H](O)[C@H]2O)c2ncnc(N)c12 (some centres undefined) : what is it?
16

Reported IC50 for CSc1nc(O)c2c3c(N)ncnc3n(C3O[C@H](CO)[C@@H](O)[C@H]3O)c2n1 (some centres undefined) : what is it?
80

---

# System: Mus musculus
# experiment.summary: In vivo increase in life span of drug treated (L1210-bearing) mice administered at a dose of 400 mg/kg/injection
# Format: functional
Exercise: state measured ILS at 400 mg/kg for each of the compounds provided.
Write the numeric value and append its unit.

Reported ILS at 400 mg/kg for Nc1ncnc2c1c1c(O)nc(S)nc1n2C1O[C@H](CO)[C@@H](O)[C@H]1O (some centres undefined) : what is it?
14%

Reported ILS at 400 mg/kg for Nc1ncnc2c1c1c(S)nc(S)nc1n2C1O[C@H](CO)[C@@H](O)[C@H]1O (some centres undefined) : what is it?
10%

Reported ILS at 400 mg/kg for CSc1nc(N)c2c3c(N)ncnc3n(C3O[C@H](CO)[C@@H](O)[C@H]3O)c2n1 (some centres undefined) : what is it?
1%

Reported ILS at 400 mg/kg for Nc1ncnc2c1c1c(O)nc(O)nc1n2C1O[C@H](CO)[C@@H](O)[C@H]1O (some centres undefined) : what is it?
108%
